For each record, write down the corresponding TGI.
Tested on: HCT-116 colon
Assay Method Text: NCI tumour cell line growth inhibition, 48 h

Challenge: Give its TGI value. Item: `CN(NC(=O)CCCl)C1=NCCCCN1`
Response given: > 100 µM

Challenge: Another molecule: `Fc1ccc(N=NN2CCCC2)cc1`
Response given: > 100 µM

Challenge: Another molecule: `O=C1C(Br)=CC2(C=C1Br)CCNC1=C2C(=O)c2cccnc2C1=O`
Response given: 26.4 µM

Challenge: Another molecule: `CCOC(=O)/C=C(\C(=O)OCC)n1ccc(N)nc1=O`
Response given: > 100 µM

Challenge: Another molecule: Cc1ccc(C(C2C(=O)N(C)C(=O)N(C)C2=O)C(F)(F)C(=O)N(C)C)cc1 (stereo unspecified)
Response given: > 100 µM

Challenge: Another molecule: O=C1Nc2cc([N+](=O)[O-])ccc2NC1/C(=N\Nc1ccccc1)C(O)c1cccc([N+](=O)[O-])c1 (stereo unspecified)
Response given: > 100 µM

Challenge: Another molecule: CCCCOP1(=O)C=C(C)C(=C(Cl)Cl)C(C)=C1 (stereo unspecified)
Response given: 6.29 µM

Challenge: Another molecule: `CCOC(=O)/C=C/C(C(=O)/C=C/c1ccc(O)c(OC)c1)=C(O)\C=C\c1ccc(O)c(OC)c1`
Response given: 3.24 µM

Record TGI per entry; entries follow.
1. Cc1cccc(C2=NC(C)(C)C(C)(C)N=C2c2cccc(C)n2)n1
2. CNC(=O)c1cc(NC(=O)N(CCC#N)CCN(C(=O)N[C@@H](Cc2ccccc2)C(=O)N[C@@H](CC(C)C)C(=O)NC)c2ccccc2)ccc1OC
3. O=C1CN(C(=O)c2ccccc2)Cc2[nH]c3ccccc3c21

Response given:
1. > 100 µM
2. > 100 µM
3. > 100 µM

Record TGI per entry; entries follow.
1. Cc1cc(Cc2cc(C)cc(C(C)(C)C)c2O)c(O)c(C(C)(C)C)c1
2. COc1cc(-c2nc3sc4c(c3c(=O)[nH]2)CCCCCC4)cc(OC)c1OC
3. C=CCNC(=O)NC1=CSC2=NC(=O)C3(NN12)c1ccccc1-c1ccccc13
4. N#CCc1ncc(-c2ccc(C(F)(F)F)cc2)c(NC2CCCCCC2)n1
5. Cc1cc(Nc2ncnc3ccc(NC4=NC(C)(C)CO4)cc23)ccc1Oc1ccn2ncnc2c1

Response given:
1. 11.7 µM
2. 5.72 µM
3. > 10 µM
4. > 10 µM
5. > 80.1 µM

Record TGI per entry; entries follow.
1. COc1cc(CC2c3cc(OC)c(OC)cc3CCN2C)c(Oc2cc3c(cc2OC)-c2c(O)c(OC)cc4c2C(C3)N(C)CC4)cc1OC (stereo unspecified)
2. O=S1(=O)c2ccccc2C(=NO)c2ccccc21

Response given:
1: > 100 µM; 2: > 100 µM

Record TGI per entry; entries follow.
1. C=CCSC1=N/C(=C\c2ccccc2)C(=O)N1CC=C
2. C=CCC1(O)c2cccc(NCCO)c2C(=O)c2c(NCCO)cccc21
3. O=c1[nH]c(=O)n(Cc2ccccc2CO)cc1Sc1ccccc1

Response given:
> 100 µM
> 100 µM
64.7 µM
